Measured values drawn from the supplement of paper PMC8728848 for this set.

Molecular target: Gal(b1-4)Glc6S
Assay: glycan array binding signal (z-score within array); higher = stronger binding
Conditions: glycan notation: IUPAC condensed, linker removed
About 410 targets per protein were measured; listed, in parts, are those with the strongest signals and a random draw of the rest.
quantity: glycan array binding signal (z-score)
Reply briefly: the number, and no unit.

What glycan array binding signal (z-score) value was documented for this binder, rCnSL-proB (Clitocybe nebularis) (protein) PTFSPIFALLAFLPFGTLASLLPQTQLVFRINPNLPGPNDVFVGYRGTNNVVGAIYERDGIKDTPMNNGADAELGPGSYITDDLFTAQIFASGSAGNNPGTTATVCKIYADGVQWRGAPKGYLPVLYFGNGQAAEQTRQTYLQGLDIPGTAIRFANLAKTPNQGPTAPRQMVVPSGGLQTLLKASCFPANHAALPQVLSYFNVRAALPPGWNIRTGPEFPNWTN ?
-0.06

Would you mind telling me what glycan array binding signal (z-score) value was observed for MGL2 (Mus musculus), Q8JZN1 (protein) MTMRYENFQNLEREEKNQEMRNGDKKGGMESPKFALIPSQSFLWRILSWTHLLLFSLGLSLLLLVVISVIGSQNSQLRRDLGTLRAILDNTTSKIKAEFQSLDSRADNFEKGISSLKVDVEDHRQELQAGRDLSQKVTSLESTLEKREQALKTDLSDLTDHVQQLETDLKALTCQLANLKNNGSEVACCPLHWTEHEGSCYWFSESEKSWPEADKYCRLENSHLVVVNSLEEQNFLQNRLANVLSWMGLTDQNGPWRWVDGTDFDKGFKNWRPLQPDNWHGHMLGGGEDCAHFSYDGRWNDDVCQRHYHWICETELGKASSAHSPQLIASVP ?
-0.225

Fill in: glycan array binding signal (z-score) of RegIIIbeta (Mus musculus), P35230 (protein) MLPPTACSVMSWMLLSCLMLLSQVQGEDSLKNIPSARISCPKGSQAYGSYCYALFQIPQTWFDAELACQKRPGGHLVSVLNSAEASFLSSMVKRTGNSYQYTWIGLHDPTLGAEPNGGGWEWSNNDVMNYFNWERNPSTALDRAFCGSLSRASGFLKWRDMTCEVKLPYVCKFTG is ___
-0.119

Please give the measured glycan array binding signal (z-score) for this binder: Flo11 (Saccharomyces cerevisiae), Q1H8S8 (protein) MGSSHHHHHHSSGLVPRGSHMFPTALVPRGSSEGTSCNSIVNGCPNLDFNWHMDQQNIMQYTLDVTSVSWVQDNTYQITIHVKGKENIDLKYLWSLKIIGVTGPKGTVQLYGYNENTYLIDNPTDFTATFEVYATQDVNSCQVWMPNFQIQFEYLQGSAAQYASSWQWGTTSFDLSTGCNNYDNQGHSQTDFPGFYWNIDCDNNCGGTKSS
-0.505

Value lookup for glycan array binding signal (z-score); key = Mcg Light Chain Dimer (Homo sapiens), Q6PIK1 (protein) MAGFPLLLTLLTHCAGSWGQSLLTQPPSVSGTPGQRVTISCSGSSSNIGINYVYWYQQIPGTAPKLLISTNDQRPSGVPDRFSGSKSGTSASLAIGGLRSEDEAHYYCAAWDDSMSGPGYAFGTGTKVTVLRQPKANPTVTLFPPSSEELQANKATLVCLISDFYPGAVTVAWKADGSPVKAGVETTKPSKQSNNKYAASSYLSLTPEQWKSHRSYSCQVTHEGSTVEKTVAPTECS
0.905
